# Tested on: spontaneously hypertensive rats (SHR)
# METHOD_NOTES: Antihypertensive activity (blood pressure after oral administration)
# Assay type: in vivo
# COND: Rattus norvegicus; SHR, oral 10 mg/kg, 4 hrs, decrease vs before; read-out: Blood pressure 4 hrs [Decrease]
Recorded inhibition in vivo at 10 mg/kg for the following compounds
ENDPOINT: inhibition in vivo at 10 mg/kg (%)

[
  {
    "COMPOUND": "CO[C@@H]1[C@H](O)[C@@H](CO)O[C@H]1n1cnc2c(N)nc(C)nc21 [Compound 5, 2,2'-O-dimethyladenosine]",
    "ENDPOINT": "inhibition in vivo at 10 mg/kg",
    "UNIT": "%",
    "EXPERIMENTAL_RESULT": 26.5
  },
  {
    "COMPOUND": "COC[C@H]1O[C@@H](n2cnc3c(N)nc(C)nc32)[C@H](O)[C@@H]1O [Compound 15, 2,5'-O-dimethyladenosine]",
    "ENDPOINT": "inhibition in vivo at 10 mg/kg",
    "UNIT": "%",
    "EXPERIMENTAL_RESULT": 17.7
  },
  {
    "COMPOUND": "CNc1nc(C)nc2c1ncn2[C@@H]1O[C@H](COC)[C@@H](O)[C@H]1O [Compound 24, 2,N^6,5'-O-trimethyladenosine]",
    "ENDPOINT": "inhibition in vivo at 10 mg/kg",
    "UNIT": "%",
    "EXPERIMENTAL_RESULT": 27
  },
  {
    "COMPOUND": "CCO[C@@H]1[C@H](O)[C@@H](CO)O[C@H]1n1cnc2c(NC)nc(C)nc21 [Compound 22, 2,N^6-dimethyl-2'-O-ethyladenosine]",
    "ENDPOINT": "inhibition in vivo at 10 mg/kg",
    "UNIT": "%",
    "EXPERIMENTAL_RESULT": 18.8
  }
]
